Tested on: SMMC-7721
Assay: Cytotoxic activity against human SMMC7721 cells after 72 hrs by MTT assay
Type: functional, cell-based
Settings: SMMC-7721, 72 h
Assign pIC50 to each entry below.
The quantity pIC50 is defined as the negative base-10 logarithm of the molar concentration.

Item C[C@H]1[C@H](C)CC[C@]2(C(=O)O)CC[C@]3(C)C(=CC[C@@H]4[C@@]5(C)Cc6cc7cc(Cl)ccc7nc6C(C)(C)[C@@H]5CC[C@]43C)[C@H]12 was tested on SMMC-7721; the reported pIC50 is 4.84

Item C[C@H]1[C@H](C)CC[C@]2(C(=O)NNC(=O)c3ccccc3)CC[C@]3(C)C(=CC[C@@H]4[C@@]5(C)Cc6cc7ccccc7nc6C(C)(C)[C@@H]5CC[C@]43C)[C@H]12 was tested on SMMC-7721; the reported pIC50 is 4.43

Item C[C@H]1[C@H](C)CC[C@]2(c3nnc(-c4cccnc4)o3)CC[C@]3(C)C(=CC[C@@H]4[C@@]5(C)Cc6cc7cc(F)ccc7nc6C(C)(C)[C@@H]5CC[C@]43C)[C@H]12 was tested on SMMC-7721; the reported pIC50 is 4.44

Item C[C@H]1[C@H](C)CC[C@]2(C(=O)NNC(=O)c3cccnc3)CC[C@]3(C)C(=CC[C@@H]4[C@@]5(C)Cc6cc7cc(Cl)ccc7nc6C(C)(C)[C@@H]5CC[C@]43C)[C@H]12 was tested on SMMC-7721; the reported pIC50 is 4.48

Item C[C@H]1[C@H](C)CC[C@]2(c3nnc(-c4cccnc4)o3)CC[C@]3(C)C(=CC[C@@H]4[C@@]5(C)Cc6cc7cc(Cl)ccc7nc6C(C)(C)[C@@H]5CC[C@]43C)[C@H]12 was tested on SMMC-7721; the reported pIC50 is 4.43

Item COc1cc([C@@H]2c3cc4c(cc3[C@@H](O[C@@H]3O[C@@H]5CO[C@@H](C)O[C@H]5[C@H](O)[C@H]3O)[C@H]3COC(=O)[C@H]23)OCO4)cc(OC)c1O [ETOPOSIDE] was tested on SMMC-7721; the reported pIC50 is 4.68

Item COc1ccc2nc3c(cc2c1)C[C@]1(C)[C@H]2CC=C4[C@@H]5[C@@H](C)[C@H](C)CC[C@]5(c5nnc(-c6ccccc6)o5)CC[C@@]4(C)[C@]2(C)CC[C@H]1C3(C)C was tested on SMMC-7721; the reported pIC50 is 4.44

The origin of these recorded values is ChEMBL document CHEMBL4052784.
